Assay: Potentiometric pH titration of polyalkylamines: protonation constants (basicity)
Format: physicochemical
Conditions: 25°±0.1° C., ca. 1.5 mM PAA; Ref. 3 determined by applicants
Collected Log K4 values appear next to each entry.
Field format: numeric only.

These solved cases illustrate the format of a correct answer.
NCCNCc1cccc(CNCCN)n1    4.74
Cc1cccc(CNCCNCCNCc2cccc(C)n2)n1    3.28
c1nc(CNCCNCCNCc2c[nH]cn2)c[nH]1    3.91

Using the record for "CN(CCCNCc1ccccn1)CCCNCc1ccccn1" , report its Log K4. 3.40

I have this molecule here, "Cc1cccc(CNCCCNCCCNCc2cccc(C)n2)n1" , and I need its recorded Log K4. 3.40

What Log K4 value was documented for this molecule, "c1nc(CNCCCNCCCNCc2c[nH]cn2)c[nH]1" ? 4.75

====

Assay: Potentiometric pH titration of polyalkylamines: protonation constants (basicity)
Format: physicochemical
Conditions: 25°±0.1° C., ca. 1.5 mM PAA; Ref. 3 determined by applicants
Observed property: Log K1

Cc1cccc(CNCCCNCCCNCc2cccc(C)n2)n1    9.44
NCCNCc1cccc(CNCCN)n1    9.31
c1ccc(CNCCCCNCCCNCc2ccccn2)nc1    9.36
c1ccc(CNCCCNCCCNCc2ccccn2)nc1    9.54
Cc1cccc(CNCCNCCNCc2cccc(C)n2)n1    8.52

Given the compound "c1nc(CNCCCNCCCNCc2c[nH]cn2)c[nH]1" , what is its reported Log K1? 9.75

What value of measured Log K1 is listed for "CN(CCCNCc1ccccn1)CCCNCc1ccccn1" ? 9.15

Form field: reported Log K1 of "c1nc(CNCCNCCNCc2c[nH]cn2)c[nH]1" 9.15

What does the record list as Log K1 for "c1ccc(CNCc2cccc(CNCc3ccccn3)n2)nc1" ? 7.74

====

Assay: Potentiometric pH titration of polyalkylamines: protonation constants (basicity)
Assay type: physicochemical
Conditions: 25°±0.1° C., ca. 1.5 mM PAA; Ref. 3 determined by applicants
Observed property: Log K3
Quick one: just the number, no unit, thanks!

Sample answers from the record:
c1ccc(CNCc2cccc(CNCc3ccccn3)n2)nc1    2.95
Cc1cccc(CNCCCNCCCNCc2cccc(C)n2)n1    6.25
c1ccc(CNCCCNCCNCc2ccccn2)nc1    4.76

Could you share which Log K3 value was measured for "c1ccc(CCNCc2cccc(CNCCc3ccccn3)n2)nc1" ? 3.81

Dear colleague, I am looking for the recorded Log K3 of the following molecule: "c1nc(CNCCNCCNCc2c[nH]cn2)c[nH]1" 4.92

====

Assay: Potentiometric pH titration of polyalkylamines: protonation constants (basicity)
Assay type: physicochemical
Conditions: 25°±0.1° C., ca. 1.5 mM PAA; Ref. 3 determined by applicants
Observed property: Log K2

NCCNCc1cccc(CNCCN)n1    8.6

Reported Log K2 for "c1nc(CNCCCNCCCNCc2c[nH]cn2)c[nH]1" : what is it? 8.58

Which Log K2 is listed for "c1ccc(CNCCCNCCNCc2ccccn2)nc1" ? 6.75

Requested read-out: Log K2. Entry: "c1ccc(CNCc2cccc(CNCc3ccccn3)n2)nc1" 6.69

I am curious: what Log K2 value has been reported for "c1nc(CNCCNCCNCc2c[nH]cn2)c[nH]1" ? 8.03

Please report the recorded Log K2 for "c1ccc(CNCCCCNCCCNCc2ccccn2)nc1" . 7.69
